Taken from the supplement of paper PMC7877785.

- Experiment summary: self-splicing fitness, log relative to wild type (ln ratio); higher = more splicing; Tetrahymena group I intron in knt gene, E. coli kanamycin selection, DiMSum; sequences stand for … in CUCUCU…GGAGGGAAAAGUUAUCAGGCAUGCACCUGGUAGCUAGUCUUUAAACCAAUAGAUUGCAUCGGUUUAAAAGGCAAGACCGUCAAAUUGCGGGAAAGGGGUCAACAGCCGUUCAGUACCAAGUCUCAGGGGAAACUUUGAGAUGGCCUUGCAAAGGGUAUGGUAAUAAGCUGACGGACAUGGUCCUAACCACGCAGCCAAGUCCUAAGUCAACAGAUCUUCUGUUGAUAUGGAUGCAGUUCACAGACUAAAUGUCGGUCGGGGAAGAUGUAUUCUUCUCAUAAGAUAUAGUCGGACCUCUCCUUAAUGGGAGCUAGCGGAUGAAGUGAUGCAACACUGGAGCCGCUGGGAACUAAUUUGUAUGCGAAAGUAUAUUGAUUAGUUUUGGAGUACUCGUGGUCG;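 also: selection with 25 µg/mL kanamycin versus none on LB agar overnight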
- Study conditions: 30 °C
Please enter fulfilled where self-splicing fitness (ln) is greater than or equal to -2, and not fulfilled where it is lower.

Please review the entries below; each comes with its answer.
Residue sequence: GAAGAGCAAUAUUACGCCCA
Qualitative label: not fulfilled

Residue sequence: AAGAAGCAAUAUUACGCGCA
Qualitative label: fulfilled

Residue sequence: AUCCAGCAAUAUUACGGAGC
Qualitative label: not fulfilled

Residue sequence: CCGUAGCAAUAUUACGGGCG
Qualitative label: not fulfilled

Residue sequence: GCCAAGCAAUAUUACGGAAC
Qualitative label: fulfilled

Residue sequence: GAACAGCAAUAUUACGCCCU
Qualitative label: fulfilled

Residue sequence: GCUUAGCAAUAUUACGGCUG
Qualitative label: not fulfilled

Residue sequence: UUUAAGCAAUAUUACGCAGA
Qualitative label: fulfilled

API: above_or_equal(metric=self-splicing fitness (ln), cutoff=-2) for item GUAUAGCAAUAUUACGAUUC
fulfilled

----------
- Experiment summary: self-splicing fitness, log relative to wild type (ln ratio); higher = more splicing; Tetrahymena group I intron in knt gene, E. coli kanamycin selection, DiMSum; sequences stand for … in CUCUCU…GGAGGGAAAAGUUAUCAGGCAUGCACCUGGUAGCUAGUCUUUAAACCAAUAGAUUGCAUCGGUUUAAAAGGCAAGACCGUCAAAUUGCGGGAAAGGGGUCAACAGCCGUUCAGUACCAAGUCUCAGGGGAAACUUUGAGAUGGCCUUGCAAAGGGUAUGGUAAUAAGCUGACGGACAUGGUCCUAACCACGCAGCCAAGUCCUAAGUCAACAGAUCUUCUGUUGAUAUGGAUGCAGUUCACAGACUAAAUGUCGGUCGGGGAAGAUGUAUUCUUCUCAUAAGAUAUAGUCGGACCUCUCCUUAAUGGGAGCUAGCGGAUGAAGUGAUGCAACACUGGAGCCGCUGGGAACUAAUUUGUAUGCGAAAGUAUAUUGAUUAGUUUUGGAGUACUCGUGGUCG
- Study conditions: 37 °C
Recorded self-splicing fitness (ln) determines the label; the label ranges are low class = under -2, middle class = from -2 up to -1, high class = -1 and over

Please review the entries below; each comes with its answer.
Residue sequence: CACGAGCAAUAUUACGAGAG
Qualitative label: low class
--
Residue sequence: AAGCAGCAAUAUUACGAAAU
Qualitative label: middle class
--
Residue sequence: GGCUAGCAAUAUUACGUCUU
Qualitative label: high class
--
Residue sequence: GGAUAGCAAUAUUACGGGUG
Qualitative label: high class

Which class holds GGCAAGCAAUAUUACGUCAG ?
low class

Which class holds CAUAAGCAAUAUUACGUUGC ?
low class
